Species on record: Oryctolagus cuniculus
assay procedure: In vitro inhibition of 14C amino pyrine uptake was determined in isolated rabbit gastric glands after dbcAMP stimulation
Type: functional
measurement setup: Stomach
quantity measured: pIC50
// pIC50 here means minus log10 of the molar concentration (mol/L)

(Q) Recorded pIC50 for COc1cccnc1C[S+]([O-])c1nc2cscc2[nH]1 (stereo unspecified) , please?
(A) 3.54

* * *

Reported values: IC50 for Potassium-transporting ATPase alpha chain 1 (Sus scrofa), one per item.
Please give a number only; it is taken to be in nM.

COc1c(OCC(F)(F)C(F)F)ccnc1C[S+]([O-])c1nc2cscc2[nH]1 (stereo not given) :: 3000
[O-][S+](Cc1cc(OCC(F)(F)C(F)(F)C(F)(F)C(F)F)ccn1)c1nc2cscc2[nH]1 (stereo not given) :: 2000
COc1c(OCC(F)(F)C(F)(F)C(F)(F)C(F)F)ccnc1C[S+]([O-])c1nc2cscc2[nH]1 (stereo not given) :: 12000
[O-][S+](Cc1cc(OCc2ccc(F)cc2)ccn1)c1nc2cscc2[nH]1 (stereo not given) :: 500

Now look at this one.
(Q) Recorded IC50 for Cc1sc(C)c2[nH]c([S+]([O-])Cc3cc(OCC(F)(F)F)ccn3)nc12 (stereo not given) , please?
(A) 2000
